# assay_details: Solubility of finafloxacin in three magnesium chloride-containing solutions at various pH
# Type: physicochemical
# settings: aqueous with cosolvent or surfactant or cyclodextrin; TABLE 3B magnesium chloride-containing solution; pH 7.54
assay_readout: solubility (mg/mL)
Numbers only, in mg/mL.

Give the measured solubility of N#Cc1c(N2C[C@@H]3NCCO[C@H]3C2)c(F)cc2c(=O)c(C(=O)O)cn(C3CC3)c12 [Finafloxacin] .
10.5

* * *

# assay_details: Solubility of finafloxacin in three magnesium chloride-containing solutions at various pH
# Assay type: physicochemical
# settings: aqueous with cosolvent or surfactant or cyclodextrin; TABLE 3A magnesium chloride-containing solution; final pH 7.55
assay_readout: solubility (mg/mL)
One number for each entry, in mg/mL.

Give the measured solubility of N#Cc1c(N2C[C@@H]3NCCO[C@H]3C2)c(F)cc2c(=O)c(C(=O)O)cn(C3CC3)c12 .
11.4
